# assay.name: chemical genetic growth profiling, strain panel (AID 1159580);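 further: tested at 20 µM; growth read once vehicle control cultures reached saturation at 30 °C; 1 = growth at the plate median or of vehicle wells; lower values mean less growth of the strain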
# test.conditions: S. cerevisiae deletion strains, growth OD, locus YNL183C, strain NPR1, hits give low values
Hit rate of the full screen: of about 5,500 compounds, about 2,000 (36%) were called active. Inconclusive results (about 18%) are left out. This is one part of the list.
The reader will find reported normalized growth values listed item by item below.
quantity.name: normalized growth

compound	result
CC1=NS(=O)(=O)c2cc(Cl)ccc2N1	0.906 (inactive)
CCN1C[C@]2(OC(=O)c3ccccc3NC(C)=O)CCC(OC)[C@]34C1[C@H](CC23)[C@@]1(O)CC(OC)[C@H]2CC4C1(O)[C@H]2OC (some centres undefined)	0.905 (inactive)
FC(F)(F)c1ccccc1-n1ccnc1	0.925 (inactive)
CC(C)CCCC1(C)C=Cc2c(O)c3c(c(CCC(C)C)c2O1)OC12C(CC4CC1C(C)(C)OC2(CCC(C)C(=O)O)C4O)C3=O (centres undefined)	0.92 (inactive)

###

# assay.name: chemical genetic growth profiling, strain panel (AID 1159580);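 further: tested at 20 µM; growth read once vehicle control cultures reached saturation at 30 °C; 1 = growth at the plate median or of vehicle wells; lower values mean less growth of the strain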
# test.conditions: S. cerevisiae deletion strains, growth OD, locus YNL248C, strain rpa49, hits give low values
The whole screen tested about 5,500 compounds, of which about 2,000 (36%) were called active. Inconclusive results (about 18%) are left out. Some of the results follow.
The reader will find reported normalized growth values listed item by item below.

compound	normalized growth
CC1(C)CCC2(C(=O)O)CCC3(C)C(=CCC4C5(C)CCC(O)C(C)(C)C5C(O)CC43C)C2C1 (centres undefined)	1.01
CC(CC(=O)C(O)C(C)(C)O)C1C(=O)CC2(C)C3=CCC4C(C)(C)C(OC5OCC(O)C(O)C5O)CCC45CC35C(O)CC12C (centres undefined)	1.01
COc1cc(C(=O)O[C@H]2CC[C@@]3(C)[C@@H]4CC[C@H]5[C@]6(O)C[C@H](O)[C@@]7(O)[C@@H](CN8C[C@@H](C)CC[C@H]8[C@@]7(C)O)[C@]6(O)C[C@@]53O[C@]24O)cc(OC)c1OC	1.01
COC(=O)Nc1nc2ccc(Sc3ccccc3)cc2[nH]1	0.999
NC12CC3CC(CC(C3)C1)C2	0.994
COc1c(-c2coc3cc4c(cc3c2=O)CC(O)C(C)(C)O4)ccc2c1C=CC(C)(C)O2 (centres undefined)	0.971
Nc1ccc(S(=O)(=O)Nc2cnc3ccccc3n2)cc1	1.02
CC1(C)CC(O)C2(C)CCC3(C)C(=CCC4C5(C)CCC(O)C(C)(CO)C5CCC43C)C2C1 (centres undefined)	1.02
CCC(C)C(NC)C(=O)O (centres undefined)	1.02
CCN1C[C@]2(OC(=O)c3ccccc3NC(C)=O)CCC(OC)[C@]34C1[C@H](CC23)[C@@]1(O)CC(OC)[C@H]2CC4C1(O)[C@H]2OC (some centres undefined)	0.98
COc1ccc2c3c([nH]c2c1)C(C)=NCC3	1
COC(=O)Nc1nc2ccc(C(=O)c3ccccc3)cc2[nH]1	0.977
C[C@@H]1CC[C@]2(C(=O)O)CC[C@]3(C)C(=CCC4[C@@]5(C)CC[C@H](O)C(C)(C)C5CC[C@]43C)C2[C@H]1C (some centres undefined)	1.01
Cc1ccc(-c2cc(C(F)(F)F)nn2-c2ccc(S(N)(=O)=O)cc2)cc1	1.03
COc1cc(N)c(Cl)cc1C(=O)NC1CCN(Cc2ccccc2)CC1	0.991
CNCc1ccccc1	1.03
O=c1[nH]cc(F)c(=O)[nH]1	0.346
CC(C)CCCC1(C)C=Cc2c(O)c3c(c(CCC(C)C)c2O1)OC12C(CC4CC1C(C)(C)OC2(CCC(C)C(=O)O)C4O)C3=O (centres undefined)	1.01
CC(CC(=O)C1OC1(C)C)C1C(=O)CC2(C)C3=CCC4C(C)(C)C(OC5OCC(O)C(O)C5O)CCC45CC35C(O)CC12C (centres undefined)	1.02
Cc1ccnc(NS(=O)(=O)c2ccc(N)cc2)n1	1.01
C#C[C@]1(O)CCC2C3CCC4=CC(=O)CC[C@@H]4C3CC[C@@]21CC (some centres undefined)	1
Cc1ccc(N=CN(C)C=Nc2ccc(C)cc2C)c(C)c1	0.905
CC1(C)CC[C@@]2(C(=O)O)C(C1)C1=CCC3[C@@]4(C)CC[C@H](O)C(C)(C)C4CC[C@@]3(C)[C@]1(C)C[C@@H]2O (some centres undefined)	1.01
CCOc1ccc2nc3cc(N)ccc3c(N)c2c1	0.827
Nc1ccccc1C(=O)CC(N)C(=O)O (centres undefined)	0.914
CC(=O)O[C@H]1CC[C@@]2(C)C(CC[C@]3(C)C2CC=C2C4CC(C)(C)CC[C@]4(C)CC[C@]23C)C1(C)C (some centres undefined)	0.918
CC(C)(Oc1ccc(CCNC(=O)c2ccc(Cl)cc2)cc1)C(=O)O	0.986
C/C=C(/C)C(=O)O[C@@H]1[C@H](OC(C)=O)[C@@]2(CO)C(CC1(C)C)C1=CCC3[C@@]4(C)CC[C@H](O[C@@H]5O[C@H](C(=O)O)[C@@H](O[C@@H]6O[C@H](CO)[C@@H](O)[C@H](O)[C@H]6O)[C@H](O)[C@H]5O[C@@H]5O[C@H](CO)[C@@H](O)[C@H](O)[C@H]5O)[C@](C)(CO)C4CC[C@@]3(C)[C@]1(C)C[C@H]2O (some centres undefined)	1.02
COC(=O)Nc1nc2ccc(S(=O)c3ccccc3)cc2[nH]1 (centres undefined)	1.01
